Molecular target: BRD2 (Homo sapiens, UniProt P25440)
Experiment: BromoKd affinity assay (Eurofins Discovery)
Assay type: binding
Set-up: second bromodomain BD2, BRD2(2)
Sequence (P25440 344-453 limits assumed): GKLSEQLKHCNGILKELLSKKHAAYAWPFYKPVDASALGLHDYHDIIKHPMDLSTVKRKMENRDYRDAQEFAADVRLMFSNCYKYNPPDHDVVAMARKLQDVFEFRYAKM
pKd: −log10 of the molar value.
measurement type: pKd

compound="COCCOC(=O)C1=C(C)NC2=C(C(=O)CC(c3ccccc3OC)C2)C1c1cccc(O)c1 (stereo not shown)" measurement_target="BRD2 (Homo sapiens, UniProt P25440)" reported_measurement=7.77

----------
Molecular target: BRD2 (Homo sapiens)
Assay: BromoKd affinity assay (Eurofins Discovery); cellular degradation competed by HPI-1
Type: binding
Sequence (P25440 whole entry): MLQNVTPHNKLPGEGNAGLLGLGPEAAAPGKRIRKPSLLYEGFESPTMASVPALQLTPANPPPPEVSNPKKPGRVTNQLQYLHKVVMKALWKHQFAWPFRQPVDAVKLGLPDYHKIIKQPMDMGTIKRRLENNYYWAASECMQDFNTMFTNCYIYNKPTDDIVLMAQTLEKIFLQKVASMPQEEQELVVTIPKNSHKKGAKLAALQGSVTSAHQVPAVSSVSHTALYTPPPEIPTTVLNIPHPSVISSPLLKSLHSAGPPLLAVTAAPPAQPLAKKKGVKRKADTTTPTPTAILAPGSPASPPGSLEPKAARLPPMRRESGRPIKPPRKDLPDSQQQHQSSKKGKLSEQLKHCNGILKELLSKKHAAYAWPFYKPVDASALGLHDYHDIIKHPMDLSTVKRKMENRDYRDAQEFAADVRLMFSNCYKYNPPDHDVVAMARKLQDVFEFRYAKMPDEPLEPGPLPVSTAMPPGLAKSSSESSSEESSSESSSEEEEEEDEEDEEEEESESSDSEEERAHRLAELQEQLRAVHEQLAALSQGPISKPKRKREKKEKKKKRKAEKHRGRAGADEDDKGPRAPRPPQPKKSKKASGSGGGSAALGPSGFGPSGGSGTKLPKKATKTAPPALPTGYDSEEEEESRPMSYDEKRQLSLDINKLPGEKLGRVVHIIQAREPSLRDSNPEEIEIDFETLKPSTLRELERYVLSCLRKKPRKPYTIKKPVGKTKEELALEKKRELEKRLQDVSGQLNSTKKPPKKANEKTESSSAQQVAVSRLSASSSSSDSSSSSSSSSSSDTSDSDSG
pKd: −log10 of the molar value.
measurement type: pKd

molecule="COCCOC(=O)C1=C(C)NC2=C(C(=O)CC(c3ccccc3OC)C2)C1c1cccc(OCc2cn(CCCCCCOc3cccc4c3C(=O)N(C3CCC(=O)NC3=O)C4=O)nn2)c1 (stereo not shown)" measurement_type=pKd reported_measurement=~6.70

These entries and their values trace back to paper PMC10314895.
